Molecular target: CcreOBP6
Assay: Fluorescence competitive binding assay with 1-NPN probe, CcreOBP6
Details: Ki = [IC50]/(1 + [1-NPN]/K1-NPN)
Protocol: The binding affinities of both CcreOBP6 and CcreOBP10 proteins with 20 odor volatiles were determined. The CcreOBP6 and CcreOBP10 proteins from prokaryotic cells were purified by Ni affinity chromatography. […] These samples were added to a 96 Micro Well TM microtiter plate (NunclonTM) while the multifunctional microplate reader (VARIOSKAN FLASH) excitation light wavelength was set to 337 nm. […]
ASSAY METRIC: pKi
In textbook form, pKi equals minus log to base ten of the concentration in mol/L.

CcreOBP6 assay, compound CCC/C=C/C=O [trans-2-hexenal] , recorded pKi = 4.89

---

Molecular target: CcreOBP10
Assay: Fluorescence competitive binding assay with 1-NPN probe, CcreOBP10
Conditions: odor concentration at which 1-NPN fluorescence intensity is halved
ASSAY METRIC: pIC50
In textbook form, pIC50 equals minus log to base ten of the concentration in mol/L.

Record C=CC(=C)CCC=C(C)C , field pIC50: 4.75

---

Target: CcreOBP6
Experiment: Fluorescence competitive binding assay with 1-NPN probe, CcreOBP6
Conditions: 2 μM protein, Tris-HCl pH 7.4, Em 410 nm; read-out: dissociation constant with fluorescent probe 1-NPN
ASSAY METRIC: Kd
Put down the number, then write its unit next to it.

CcreOBP6 assay, molecule c1ccc(Nc2cccc3ccccc23)cc1 [1-NPN, N-phenyl-1-naphthylamine, reference compound] , recorded Kd = 7.09 µM

---

System: CcreOBP6
Assay: Fluorescence competitive binding assay with 1-NPN probe, CcreOBP6
Parameters: species or system Cacia cretifera thibetana
Details: competitive displacement of 1-NPN

COMPOUND | binding with CcreOBP6
C1=CCCCC=CCCC1 [1,6-cyclodecadiene] | did not show any binding
CCCCCC=O [n-hexanal] | did not show any binding
C=C1CC[C@H]2O[C@]2(C)CC[C@@H]2[C@@H]1CC2(C)C [caryophyllene oxide] | did not show any binding

---

Target: CcreOBP6
Test: Fluorescence competitive binding assay with 1-NPN probe, CcreOBP6
Details: odor concentration at which 1-NPN fluorescence intensity is halved
ASSAY METRIC: pIC50
In textbook form, pIC50 equals minus log to base ten of the concentration in mol/L.

Record CCC/C=C/C=O [trans-2-hexenal] , field pIC50: 4.79
